Origin of values: patent US20260285880A1

TESTED_ON: Flpin-293-PDE4B2 cells (Homo sapiens, UniProt Q07343)
Sequence (Q07343 1-564 isoform Q07343-2): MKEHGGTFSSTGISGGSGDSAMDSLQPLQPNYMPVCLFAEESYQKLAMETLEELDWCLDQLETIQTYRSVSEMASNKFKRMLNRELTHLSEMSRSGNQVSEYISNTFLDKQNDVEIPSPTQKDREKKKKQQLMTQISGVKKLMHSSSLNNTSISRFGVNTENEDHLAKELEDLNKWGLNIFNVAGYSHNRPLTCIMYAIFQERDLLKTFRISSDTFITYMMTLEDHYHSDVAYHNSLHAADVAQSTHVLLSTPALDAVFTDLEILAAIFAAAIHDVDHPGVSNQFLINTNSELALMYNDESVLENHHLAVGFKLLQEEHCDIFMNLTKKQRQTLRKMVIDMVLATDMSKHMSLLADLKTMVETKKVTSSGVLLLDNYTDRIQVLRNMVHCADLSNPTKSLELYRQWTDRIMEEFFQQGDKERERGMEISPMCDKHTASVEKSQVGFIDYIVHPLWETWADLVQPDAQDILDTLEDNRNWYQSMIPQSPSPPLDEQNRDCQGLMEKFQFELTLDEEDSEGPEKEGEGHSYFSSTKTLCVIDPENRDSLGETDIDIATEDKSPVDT
ASSAY_NOTES: cell-based
STATED_CONDITIONS: read-out: Cell Inhibition % @100 nM, 100 nM, Flpin-293-PDE4B2 cells
MEASUREMENT_LABEL: inhibition at 0.1 µM (%)

(A) C[C@H]1c2ccc(N3CCCC3)cc2CCN1c1nc2c(c(Nc3ccnn3CCO)n1)[S+]([O-])CC2 (stereo partly shown)
(B) [O-][S+]1CCc2nc(N3CCc4cc(N5CCCC5)ccc4C3)nc(NC3(CO)CC3)c21 (stereo not shown)
Challenge: So which one has the bigger inhibition at 0.1 µM here, A or B ? Which one? Tell me its label.
Response given: B
(B: 101%, A: 66.3%)

----------
TESTED_ON: Flpin-293-PDE4B2 cells (Homo sapiens)
ASSAY_NOTES: cell-based
STATED_CONDITIONS: read-out: Cell Inhibition % @1 nM, 1 nM, Flpin-293-PDE4B2 cells
MEASUREMENT_LABEL: inhibition at 0.001 µM (%)

# COMPOUND, MEASUREMENT_LABEL, VALUE_REPORTED
measured = [
    ("[O-][S+]1CCc2nc(N3CCc4cc(N5CC6C(C5)C6(F)F)ccc4C3)nc(NC3(CO)CCC3)c21 (stereo not drawn)", "inhibition at 0.001 µM", 3.1),
]

(I) O=S1(=O)C[C@H]2C[C@@H]1CN2c1ccc2c(c1)CCN(c1nc3c(c(NC4(CO)CCC4)n1)[S+]([O-])CC3)C2 (stereo partly drawn)
(II) [O-][S+]1CCc2nc(N3CCc4cc(-n5cccn5)ccc4C3)nc(NC3(CO)CCC3)c21 (stereo not drawn)
Challenge: Could you tell me which of I and II has the lower inhibition at 0.001 µM reading? Which one? Tell me its label.
Response given: I

(I) C[C@H]1c2ccc(N3CCCC3)cc2CCN1c1nc2c(c(Nc3nnn(C)n3)n1)[S+]([O-])CC2 (stereo partly drawn)
(II) NC(=O)c1ccc2c(c1)CCN(c1nc3c(c(NC4(CO)CCC4)n1)[S+]([O-])CC3)C2 (stereo not drawn)
Challenge: Could you tell me which of I and II has the lower inhibition at 0.001 µM reading? Which one? Tell me its label.
Response given: II
(II: 4.93%, I: 9.25%)

(A) C[C@H]1c2ccc(N3CCCC3)cc2CCN1c1nc2c(c(NC3(CO)CCOC3)n1)[S+]([O-])CC2 (stereo partly drawn)
(B) C[C@H]1c2ccc(N3CCCC3)cc2CCN1c1nc2c(c(Nc3ccnn3CCO)n1)[S+]([O-])CC2 (stereo partly drawn)
(C) C[C@H]1c2ccc(N3CCCC3)cc2CCN1c1nc2c(c(NCc3cnn(C)c3)n1)[S+]([O-])CC2 (stereo partly drawn)
(D) Cn1c2c(c3ccc(Cl)cc3c1=O)CCN(c1nc3c(c(NC4(CO)CCC4)n1)[S+]([O-])CC3)C2 (stereo not drawn)
Challenge: # desc sort on inhibition at 0.001 µM across 4 compounds Hello, could you send the labels back in the order asked? Thank you.
Response given: C, A, B, D

----------
TESTED_ON: Flpin-293-PDE4B2 cells (Homo sapiens)
ASSAY_NOTES: cell-based
STATED_CONDITIONS: read-out: Cell Inhibition % @10 nM, 10 nM, Flpin-293-PDE4B2 cells
MEASUREMENT_LABEL: inhibition at 0.01 µM (%)

(1) [O-][S+]1CCc2nc(N3CC[C@H]4c5ccc(Cl)cc5OC[C@H]4C3)nc(NC3(CO)CCC3)c21 (stereo partly shown)
(2) Cn1cc2c(n1)CN(c1nc3c(c(NC4(CO)CCC4)n1)[S+]([O-])CC3)CC2 (stereo not shown)
Challenge: So which one has the bigger inhibition at 0.01 µM here, 1 or 2 ? Which one? Tell me its label.
Response given: 1
(1: 16.9%, 2: 11.3%)
